# measurementTarget: Sphingosine 1-phosphate receptor 1 (Homo sapiens) (UniProt P21453)
# Sequence (P21453 whole entry, looked up): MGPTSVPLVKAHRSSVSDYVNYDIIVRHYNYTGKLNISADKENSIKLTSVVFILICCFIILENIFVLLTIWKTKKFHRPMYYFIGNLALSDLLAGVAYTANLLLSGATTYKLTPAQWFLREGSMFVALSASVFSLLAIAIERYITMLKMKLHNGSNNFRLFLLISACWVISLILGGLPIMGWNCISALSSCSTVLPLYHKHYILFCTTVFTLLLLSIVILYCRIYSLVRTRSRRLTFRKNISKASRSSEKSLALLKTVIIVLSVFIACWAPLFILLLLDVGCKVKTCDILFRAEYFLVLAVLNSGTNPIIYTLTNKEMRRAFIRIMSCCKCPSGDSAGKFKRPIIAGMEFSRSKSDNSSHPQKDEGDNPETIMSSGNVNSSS
# assayMethodText: S1P1 receptor antagonists, human, confirmation, counter-screen for OPRK1 antagonist project, cell-based, fluorescence (AID 652087)
# condition: Tango EDG-1-bla U2OS, beta-lactamase FRET, S1P antagonism; at 9 µM; stronger effect = higher value
outcomeMeasure: inhibition (%)

molecule=CCOC(=O)C1CCN(Cc2cccc(NC(=O)c3ccco3)c2)CC1 outcomemeasure=inhibition val=15.4
molecule=CN(C)c1cc(NC(=O)Nc2ccccc2)c2ccccc2n1 outcomemeasure=inhibition val=-14.9
molecule=S=C(NNc1c(Cl)cncc1Cl)Nc1ccc(Cl)cc1Cl outcomemeasure=inhibition val=45.3
molecule=O=C(c1cnn(-c2ccc(Cl)cc2)c1C(F)(F)F)N1CCN(c2ncnc3ccsc23)CC1 outcomemeasure=inhibition val=-19.1
molecule=O=C(Nc1ccc([N+](=O)[O-])cc1)Nc1csc(-c2cccnc2)n1 outcomemeasure=inhibition val=5.35
molecule=O=[N+]([O-])c1ccc(-c2ccc(/C=N/Nc3ccccc3)o2)cc1 outcomemeasure=inhibition val=92.1
molecule=CC(=O)N1CCC(C(=O)O/N=C(\N)c2ccc(Cl)cc2)CC1 outcomemeasure=inhibition val=16.3
molecule=Clc1ccc2nc3c(nc2c1)Nc1ccccc1S3 outcomemeasure=inhibition val=94.9
molecule=Cc1ccc(/C=c2\sc3nc4ccccc4n3c2=O)o1 outcomemeasure=inhibition val=-0.81
molecule=COC(=O)c1cnn(-c2ccc(Cl)cc2)c1C=C(C#N)C#N outcomemeasure=inhibition val=45.1
molecule="Oc1c(Cl)cc(Cl)cc1C1Nc2cc(Cl)c(C(F)(F)F)cc2N1 (centres undefined)" outcomemeasure=inhibition val=38.5
molecule=c1ccc(-c2cc3ncnc(NCc4ccc5c(c4)OCO5)c3s2)cc1 outcomemeasure=inhibition val=4.01
molecule=O=C(Nc1ccc(Cl)cc1Cl)c1cc([N+](=O)[O-])cc2c1-c1ccc([N+](=O)[O-])cc1C2=O outcomemeasure=inhibition val=63.3
molecule=COc1cc([N+](=O)[O-])c(OC)cc1SCc1n[nH]c(=S)n1-c1ccc(C)cc1 outcomemeasure=inhibition val=3.13
molecule=Brc1ccc(-c2csc(Nc3ccncc3)n2)cc1 outcomemeasure=inhibition val=65.4
molecule=CSc1ccc(/C=C/c2onc(C)c2[N+](=O)[O-])s1 outcomemeasure=inhibition val=10.1
molecule=CCCCCC[n+]1ccccc1/C=C/c1ccc(N(C)C)cc1 outcomemeasure=inhibition val=99.1
molecule=O=[N+]([O-])c1ccc(N/N=C/c2ccc(-c3cccs3)s2)nc1 outcomemeasure=inhibition val=79.4
molecule=CCCCNc1ccc2c3c(cccc13)C(=O)N(CCCC)C2=O outcomemeasure=inhibition val=93.5
molecule=Cn1c(=O)c2cc3cc(Cl)ccc3nc2c2c(=O)n(-c3ccccc3)c(=O)n(-c3ccccc3)c21 outcomemeasure=inhibition val=59.2
molecule=C=CCn1c(-c2sc3nnc(-c4ccccc4)c(-c4ccccc4)c3c2N)n[nH]c1=S outcomemeasure=inhibition val=33.4
molecule=COc1cccc(C(=O)c2sc3nsc(SCc4ccc(F)cc4)c3c2N)c1 outcomemeasure=inhibition val=-12.7
molecule=COC(=O)c1ccc(/C=C2\C(=O)Nc3ccccc32)n1-c1ccc(F)cc1 outcomemeasure=inhibition val=9.9
molecule=CN(C)c1ccc(-n2nnnc2SCc2ccc(Cl)cc2)cc1 outcomemeasure=inhibition val=37.2

The reported numbers originate from PubChem BioAssay AID652087.
